In this section, each of the variants is paired with its reported protein stability index.
B1: ZNF449 (parent)
chain: YRHQRLHTGERPYECTVCKKRFTR

- Variants of: B1
- EXPERIMENT_SUMMARY: protein stability index of a GFP-peptide fusion (GPS, HEK-293T) (PSI 1-6); higher = more stable;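 further: lentivirally expressed fusions sorted by FACS into six bins by GFP to DsRed ratio, PSI derived from sequencing read proportions per bin multiplied by bin number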
- CONDITION_INFO: c terminus: a fixed tail appended
# output: bare number, no unit

Worked set:
SEQUENCE_DATA	protein stability index
YRIQRLHTGERPYECTVCKKRFTR [H3I]	2.12
YRHQRLHTGERPYECTVCKKRFTC [R24C]	2.65

Consider the record given below.
Looking up YRSQRLHTGERPYECTVCKKRFTR [H3S] , I found its protein stability index recorded as 2.35

Recorded values, source the supplement of paper PMC10567573.
